molecular target: recombinant human PIM1 (Homo sapiens (Human), UniProt P11309); experiment: PIM-1 kinase activity in cell-free in vitro assay; format: biochemical; details: 500 nM compound, cell-free assay; read-out: PIM-1: % inh 500 nM
Sequence (P11309 whole entry): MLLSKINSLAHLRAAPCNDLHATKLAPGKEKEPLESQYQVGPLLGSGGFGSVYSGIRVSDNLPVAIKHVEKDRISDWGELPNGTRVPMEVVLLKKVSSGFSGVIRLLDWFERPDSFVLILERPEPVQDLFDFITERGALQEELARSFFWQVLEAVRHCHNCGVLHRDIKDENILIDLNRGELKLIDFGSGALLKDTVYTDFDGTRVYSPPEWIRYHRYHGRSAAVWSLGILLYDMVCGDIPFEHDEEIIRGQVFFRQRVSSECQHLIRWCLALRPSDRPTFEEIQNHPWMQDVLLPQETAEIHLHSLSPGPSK
measurement_name: inhibition at 0.5 µM (%)

Check out these entries, answers already filled in.
| compound | inhibition at 0.5 µM, % |
| --- | --- |
| O=C(O)CCNc1ncc2c(n1)c(Nc1cccc(Cl)c1)nc1cc(C(=O)O)ccc12 | 24.2 |
| Fc1cc(Cl)cc(Nc2nc3cc(-c4nnn[nH]4)ccc3c3cscc23)c1 | 11.4 |

(a) NC(=O)c1cccc2c1nc(Nc1cccc(Cl)c1)c1ccncc12 [drawing 2002]
(b) C#Cc1cccc(Nc2nc3cc(C(=O)N4CCCC4)ccc3c3cncnc23)c1
(c) CC1(C)CC(Nc2nc3cc(-c4nnn[nH]4)ccc3c3sccc23)CC(C)(C)N1
(d) CN1CC(Nc2nc3cc(C#N)ccc3c3sccc23)C1
(e) CC(C)(C)OC(=O)N1CCCC1CNc1nc2cc(C#N)ccc2c2sccc12 (centres unmarked)
stdin: Put the compounds in ascending order of inhibition at 0.5 µM. I'd appreciate it if you listed the labels in the requested order.
stdout: e, b, d, c, a
